Tested on: L1210 leukemia ip in BDF1 mice, survival T/C
Assay: NCI In Vivo Anticancer Drug Screen. Data for tumor model L1210 Leukemia (intraperitoneal) in B6D2F1 (BDF1) mice
Details: endpoint: mean survival time; dose: 200.0 mg/kg/injection; schedule: Q01DX009 (ip); vehicle: Klucel (hydroxypropylcellulose) (HPC); higher = longer survival
Toxic doses and inconclusive results are not listed.
As shown below, each of these compounds has a reported T/C value.

Recorded results for 10 compounds are shown here.
{"columns": ["COMPOUND", "MEASUREMENT_KIND", "MEAS_VALUE"],
 "data": [
  ["O=C1c2ccccc2C(=O)N1OC1CCCCO1 (configuration not stated)", "T/C", "110 % of control"],
  ["CCCCCCCCCCCCNC(=O)CCl", "T/C", "90 % of control"],
  ["CCN(CCOC(=O)Nc1cccc(C(C)=O)c1)c1ccccc1", "T/C", "104 % of control"],
  ["O=C(O)Cc1ccc(N=Nc2c(O)c(C(=O)O)cc3ccccc23)cc1", "T/C", "105 % of control"],
  ["COc1ccc(C(=O)NC(=S)Nc2cccc(Cl)c2)cc1", "T/C", "98 % of control"],
  ["CSc1ccc(NC(=O)Nc2ccc(Cl)cc2Cl)cc1", "T/C", "88 % of control"],
  ["Cc1cccc(C)c1NC(=O)Nc1ccc(CCO)cc1", "T/C", "98 % of control"],
  ["CCOc1ccc(NC(=O)CCC(=O)O)cc1", "T/C", "93 % of control"],
  ["NS(=O)(=O)c1ccc(N=Nc2ncc[nH]2)cc1", "T/C", "94 % of control"],
  ["O=[N+]([O-])c1cc(Br)c(N2CCCC2)cc1N1CCCC1", "T/C", "106 % of control"]
]}

Retrieve T/C measured for `COC(=O)c1cc(=O)[nH]c2c1c(=O)n(C)c(=O)n2C` and print it. 97 % of control

Retrieve T/C measured for `Cc1ccc(-n2c(=S)[nH]c3ccccc3c2=O)cc1C` and print it. 90 % of control
